biological target: Nuclear receptor subfamily 1 group I member 3 (Homo sapiens) (UniProt Q14994); test: qHTS assay to identify small molecule agonists of the constitutive androstane receptor (CAR) signaling pathway (AID 1224839); conditions: HepG2 hCAR CYP2B6-luciferase, agonist mode, 24 h; series mostly up to 92.4 µM; also: nearly all actives have a fitted effect of over 15% in size;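 as to activation: HepG2 cells stably carrying human CAR and a CYP2B6 luciferase reporter; % is scaled to controls: 0 for no effect and ±100 for the full control effect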
Sequence (Q14994 whole entry, looked up): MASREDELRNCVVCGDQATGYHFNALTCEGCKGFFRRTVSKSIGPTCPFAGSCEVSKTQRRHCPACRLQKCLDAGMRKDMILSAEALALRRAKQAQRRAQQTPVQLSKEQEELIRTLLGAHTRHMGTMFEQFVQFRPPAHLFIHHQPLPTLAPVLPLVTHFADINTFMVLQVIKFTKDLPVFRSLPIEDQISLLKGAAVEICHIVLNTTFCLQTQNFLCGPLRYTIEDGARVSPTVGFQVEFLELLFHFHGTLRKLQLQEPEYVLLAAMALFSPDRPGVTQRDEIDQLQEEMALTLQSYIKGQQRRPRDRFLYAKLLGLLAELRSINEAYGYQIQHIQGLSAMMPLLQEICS
Results filed as inconclusive are left out. Activity calls are given as the source filed them. Calls follow the shape of the dose curve; as a rule, active = well fitted activation curve with a large enough effect in the repeat runs; inconclusive = weak or mixed curves; inactive = no such curve, though single readings can be large or run the other way.
Hi! Could you answer with just one of these? True = active, False = inactive

For orientation, consider the following solved cases.
CC(Cl)C(=O)O (centres undefined)	False
ClCc1ccccc1Cl	False
CCCCC#N	False
Cc1ncc(C[n+]2csc(CCO)c2C)c(N)n1	False
CCc1cnc(C2=NC(C)(C(C)C)C(=O)N2)c(C(=O)O)c1 (centres undefined)	False
CCC1(CC)C(=O)NC(=O)NC1=O	False
CC(Oc1cc(Cl)c(Cl)cc1Cl)C(=O)O (centres undefined)	False
Nc1ccc2c(c1)Cc1ccccc1-2	True

Ask: Recorded test call requested for O=[N+]([O-])c1cc(Cl)c(Cl)cc1Cl
Reply: False

Ask: Recorded test call requested for C=CC(C)(CCC=C(C)C)OC(=O)c1ccccc1N (centres undefined)
Reply: False

Ask: Recorded test call requested for Nc1ccccc1C(=O)OCC(O)CO (centres undefined)
Reply: False

Ask: Recorded test call requested for Cc1ccc2c(C)cccc2c1
Reply: False

Ask: Recorded test call requested for O=C(N/N=C/c1ccc([N+](=O)[O-])o1)c1cc([N+](=O)[O-])cc([N+](=O)[O-])c1O
Reply: True

Ask: Recorded test call requested for CCCCC1C(=O)NC(=O)N(C2CCCCC2)C1=O (centres undefined)
Reply: False

* * *

assay: qHTS assay to identify small molecule antagonists of the estrogen receptor beta (ER-beta) signaling pathway - cell viability counter screen (AID 1259382); settings: ER-beta-UAS-bla HEK293T viability, CellTiter-Glo luminescence, 16 h; series mostly up to 92.4 µM;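 also: HEK293T cells carrying ER-beta-UAS-bla reporter stimulated with estradiol; % is scaled to controls: 0 for no effect and ±100 for the full control effect; nearly all actives have a fitted effect of over 55% in size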
Results filed as inconclusive are left out. Activity calls are given as the source filed them. The call rests on the fitted dose curve; in most records, active means well fitted cell-killing curve with a large enough effect in the repeat runs; inconclusive means weak or mixed curves; inactive means flat fitted curve, though single readings scatter.
ASSAY_METRIC: activity change, negative = cytotoxicity

Here are 5 compounds together with their reported answers.
C=CCc1ccc(OC(=O)Cc2ccccc2)c(OC)c1	inactive
CN1CC[C@]23c4c5ccc(O)c4O[C@H]2[C@@H](O)CC[C@H]3[C@H]1C5	inactive
NC(=O)CF	inactive
O=C(CCl)CCl	inactive
CC(C)c1ccc(NC(=O)N(C)C)cc1	inactive

Ask: Please report the recorded activity change, negative = cytotoxicity for CCOP(=S)(OCC)SCSc1cc(Cl)ccc1Cl .
Reply: inactive

Ask: Please report the recorded activity change, negative = cytotoxicity for CCCCCl .
Reply: inactive

Ask: Please report the recorded activity change, negative = cytotoxicity for C=CCOCC1CO1 (stereo not drawn) .
Reply: inactive

* * *

biological target: Cytochrome P450 3A4 (Homo sapiens) (UniProt P08684); assay: Cytochrome P450 Family 3 Subfamily A Member 4 (CYP3A4) small molecule antagonists: luciferase reporter qHTS assay (AID 1671201); settings: P450-Glo CYP3A4 enzyme, luciferin luminescence, 1 h; series mostly up to 115 µM; also: % is scaled to controls: 0 for no effect and ±100 for the full control effect; nearly all actives have a fitted effect of over 50% in size
Sequence (P08684 whole entry, looked up): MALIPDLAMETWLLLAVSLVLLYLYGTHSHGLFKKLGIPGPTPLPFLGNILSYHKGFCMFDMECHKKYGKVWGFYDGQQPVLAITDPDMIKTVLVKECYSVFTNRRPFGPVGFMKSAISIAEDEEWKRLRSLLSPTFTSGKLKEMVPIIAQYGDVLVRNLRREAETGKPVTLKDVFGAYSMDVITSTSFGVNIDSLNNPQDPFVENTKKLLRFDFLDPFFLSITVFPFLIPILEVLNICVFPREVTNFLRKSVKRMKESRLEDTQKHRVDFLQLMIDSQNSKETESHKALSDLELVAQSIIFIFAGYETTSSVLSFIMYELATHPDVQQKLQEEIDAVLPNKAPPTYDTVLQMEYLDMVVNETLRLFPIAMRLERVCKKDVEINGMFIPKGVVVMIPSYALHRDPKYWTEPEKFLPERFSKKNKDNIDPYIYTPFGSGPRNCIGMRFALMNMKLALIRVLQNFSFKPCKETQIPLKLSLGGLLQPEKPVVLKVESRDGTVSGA
Inconclusive results are not listed. Calls of active or inactive are those of the source. Calls come from the whole dose curve; as a rule, active = well fitted inhibition curve with a large enough effect in the repeat runs; inconclusive = weak or mixed curves; inactive = no such curve, though single readings can be large or run the other way.
Hi! Could you answer with just one of these? true (1) for active, false (0) for inactive

OCCCl	false (0)

Ask: Recorded test call requested for c1ccc2c(c1)sc1ccccc12
Reply: false (0)

Ask: Recorded test call requested for C[N+]1(CCF)[C@@H]2CC[C@H]1CC(OC(=O)C(O)(c1ccccc1)c1ccccc1)C2 (some centres undefined)
Reply: false (0)

Ask: Recorded test call requested for OCC1CO1 (centres undefined)
Reply: false (0)

Ask: Recorded test call requested for CN(C)N
Reply: false (0)

Ask: Recorded test call requested for CC(C)(C)c1ccc(CCOc2ncnc3ccccc23)cc1
Reply: false (0)

* * *

assay: qHTS RealTime-Glo MT Cell Viability Assay in HEK293 cells - 40 hour (AID 1224874); details: RealTime-Glo luminescence; stronger effect = lower value; also: % is scaled to controls: 0 for no effect and ±100 for the full control effect; nearly all actives have a fitted effect of over 50% in size
Inconclusive results are not listed.
ASSAY_METRIC: max response (%)
# number only, unit % dropped from output

C=CCSSCC=C	1.18
CCCC[N+]1(C)[C@@H]2CC(OC(=O)[C@H](CO)c3ccccc3)C[C@H]1[C@@H]1O[C@@H]12 (stereo partly drawn)	2.06
CCOP(=O)(O)C(N)=O	20.4
CC(C)CCON=O	0.253
CCOP(=S)(S)OCC	2.46
Cc1nnc(-c2ccccc2)c(=O)n1N	-13.2
CCC1CCC(=O)O1 (stereo not drawn)	8.21

Shifting focus to the compound that follows.
Ask: Please report the recorded max response for CCC[N+](CCC)(CCC)CCC .
Reply: 6.01

* * *

test: A CellTox Green Cytotoxicity Assay to monitor cytotoxicity in HepG2 cells - 40 hour (AID 1224879); details: CellTox Green fluorescence; series mostly up to 76.8 µM; also: nearly all actives have a fitted effect of over 40% in size
Records with an inconclusive call do not appear. The source made the active and inactive calls. Calls follow the shape of the dose curve; as a rule, active = well fitted activation curve with a large enough effect in the repeat runs; inconclusive = weak or mixed curves; inactive = flat fitted curve, though single readings scatter.
Hi! Could you answer with just one of these? 1 for active, 0 for inactive

For orientation, consider the following solved cases.
O=C(O)c1ccc(=O)[nH]c1	0
O=[N+]([O-])/C=C/c1ccccc1	1

Ask: Recorded test call requested for c1ccc2sc(SNC3CCCCC3)nc2c1
Reply: 0

Ask: Recorded test call requested for CCOc1cccc(C2(N3CCN(c4ccccc4)CC3)CCC(C)CC2)c1 (stereo not given)
Reply: 0

Ask: Recorded test call requested for Cc1nnc(-c2ccccc2)c(=O)n1N
Reply: 0

* * *

experiment: qHTS RealTime-Glo MT Cell Viability Assay in HEK293 cells - 40 hour (AID 1224874); conditions: RealTime-Glo luminescence; stronger effect = lower value; also: % is scaled to controls: 0 for no effect and ±100 for the full control effect; nearly all actives have a fitted effect of over 50% in size
Inconclusive results are not listed.
ASSAY_METRIC: max response (%)
# number only, unit % dropped from output

Here are 8 molecules together with their reported answers.
NCCc1cc(O)c(O)cc1O	-1.21
CCC(=O)O[C@@H]1C=C2CCC3C(CCC4(C)C3CC[C@@H]4OC(=O)CC)C2CC1 (stereo partly specified)	-21.1
CC(C)c1ccc(OP(=O)(Oc2ccc(C(C)C)cc2)Oc2ccc(C(C)C)cc2)cc1	-29.6
CCCCC#N	-2.33
C[C@H]1O[C@H](OC2[C@@H](O)[C@@H](O)C(O)[C@H](O)[C@H]2O)[C@@H](N)C[C@@H]1N=C(N)C(=O)O (stereo partly specified)	5.07
CC(C)(C)NCC(O)c1cc(Cl)c(N)c(C(F)(F)F)c1 (stereo unspecified)	3.67
OCCSSCCO	3.99
CCC(C)Cl (stereo unspecified)	9.33

Ask: Please report the recorded max response for Nc1ccccc1C(=O)OCC(O)CO (stereo unspecified) .
Reply: 9.15

Ask: Please report the recorded max response for CN(C)C(=O)Nc1cccc(OC(=O)NC(C)(C)C)c1 .
Reply: -14.3

Ask: Please report the recorded max response for CN[C@@H](C)[C@H](O)c1ccccc1 .
Reply: 1.2

Ask: Please report the recorded max response for O=[N+]([O-])O[C@H]1CO[C@H]2[C@@H]1OC[C@H]2O[N+](=O)[O-] .
Reply: 6.05

Ask: Please report the recorded max response for C[N+]1(CCC(C(N)=O)(c2ccccc2)c2ccccc2)CCCCC1 .
Reply: 0.771

Ask: Please report the recorded max response for CC(Cc1ccccc1)NCc1ccccc1Cl (stereo unspecified) .
Reply: -14.1

* * *

assay: qHTS assay for small molecule activators of the heat shock response signaling pathway - cell viability counter screen (AID 743209); settings: HSE-bla HeLa viability, CellTiter-Glo luminescence, 5 h; series mostly up to 62.6 µM; also: % is scaled to controls: 0 for no effect and ±100 for the full control effect; nearly all actives have a fitted effect of over 50% in size
Results filed as inconclusive are left out. Activity calls are given as the source filed them. Calls come from the whole dose curve; as a rule, active = well fitted cell-killing curve with a large enough effect in the repeat runs; inconclusive = weak or mixed curves, or effect the other way; inactive = no such curve, though single readings can be large or run the other way.
ASSAY_METRIC: outcome

Here are 5 compounds together with their reported answers.
C[C@]12C=CC3=C4CCC(=O)C=C4CC[C@H]3[C@@H]1CC[C@@H]2O	inactive
CC1(C)CC(=O)CC(C)(C)N1[O]	inactive
O=CC=O	inactive
O=C(NC(=O)c1cc(F)c(F)cc1Cl)Nc1cc(F)ccc1N1CCC(C(=O)O)CC1	inactive
CCOC(=O)C1OC1(C)c1ccccc1 (centres undefined)	inactive

Ask: Please report the recorded outcome for CCOP(=O)(SC(C)CC)N1CCSC1=O (centres undefined) .
Reply: inactive

Ask: Please report the recorded outcome for CCCCNC(=O)OCC#CI .
Reply: inactive

Ask: Please report the recorded outcome for O=C(O)C(F)(F)C(F)(F)C(F)(F)C(F)(F)C(F)(F)F .
Reply: inactive

Ask: Please report the recorded outcome for Oc1cccc(Cl)c1 .
Reply: inactive

Ask: Please report the recorded outcome for c1ccc2c(c1)-c1cccc3cccc-2c13 .
Reply: inactive

Ask: Please report the recorded outcome for CCOP(=S)(S)OCC .
Reply: inactive

Ask: Please report the recorded outcome for C1CS1 .
Reply: inactive

Ask: Please report the recorded outcome for C[C@H](N)[C@H](O)c1ccc(O)c(O)c1 .
Reply: inactive

Ask: Please report the recorded outcome for CCCCOC(=O)CCC(=O)OCCCC .
Reply: inactive

Ask: Please report the recorded outcome for COC(=O)Cc1ccccc1 .
Reply: inactive

Ask: Please report the recorded outcome for C=CCc1ccccc1O .
Reply: inactive

Ask: Please report the recorded outcome for O=C(Cl)OCCOCCOC(=O)Cl .
Reply: inactive

Ask: Please report the recorded outcome for CN(C1CCCCC1)C1CCCCC1 .
Reply: inactive

Ask: Please report the recorded outcome for CN1CC[C@]23c4c5ccc(O)c4O[C@H]2[C@@H](O)C=C[C@H]3[C@H]1C5 .
Reply: inactive
